Value source: ChEMBL document CHEMBL3580655

As shown below, each of these compounds has a reported GI50 value.
- Test system: MCF7
- experiment.summary: Antiproliferative activity against human MCF7 cells assessed as inhibition of cell growth after 72 hrs by MTT assay
- Format: functional
- test.parameters: MCF7, 72 h
Write the value in nM as a bare number.

Worked cases, answers included:
# compound.smiles, target.system, assay.metric, reported.result
records = [
    ("NCCCOc1ccccc1C(=O)NCCCOc1cc2ccccc2cc1C(=O)Nc1ccc(Cl)cc1O", "MCF7", "GI50", 2660),
    ("O=C(NCCCOc1cc2ccccc2cc1C(=O)Nc1ccc(Cl)cc1O)c1cc2ccccc2cc1OCCCO", "MCF7", "GI50", 29000),
    ("NCCCOc1cc2ccccc2cc1C(=O)NCCCOc1cc2ccccc2cc1C(=O)Nc1ccc(Cl)cc1", "MCF7", "GI50", 1720),
    ("NCCOc1cc2ccccc2cc1C(=O)NCCOc1cc2ccccc2cc1C(=O)Nc1ccc(Cl)cc1O", "MCF7", "GI50", 810),
    ("CNCCCOc1cc2ccccc2cc1C(=O)NCCCOc1cc2ccccc2cc1C(=O)Nc1ccc(Cl)cc1O", "MCF7", "GI50", 1650),
]

Inquiry: Give recorded GI50. NCCOc1cc2ccccc2cc1C(=O)NCCCOc1cc2ccccc2cc1C(=O)Nc1ccc(Cl)cc1O
Reply text: 1890

Inquiry: Give recorded GI50. NCCCOc1cc2ccccc2cc1C(=O)NCCCOc1ccccc1C(=O)Nc1ccc(Cl)cc1O
Reply text: 2300

Inquiry: Give recorded GI50. NCCCOc1cc2ccccc2cc1C(=O)NCCCOc1cc2ccccc2cc1C(=O)Nc1ccc(Cl)cc1O
Reply text: 140

====

- Tested on: MDA-MB-468
- experiment.summary: Antiproliferative activity against human MDA-MB-468 cells assessed as inhibition of cell growth after 72 hrs by MTT assay
- Format: functional
- test.parameters: MDA-MB-468, 72 h
assay.metric: GI50 (nM)
Write the value in nM as a bare number.

Worked cases, answers included:
# compound.smiles, GI50 (nM)
measured = [
    ("CNCCCOc1cc2ccccc2cc1C(=O)NCCCOc1cc2ccccc2cc1C(=O)Nc1ccc(Cl)cc1O", 200),
    ("NCCOc1cc2ccccc2cc1C(=O)NCCOc1cc2ccccc2cc1C(=O)Nc1ccc(Cl)cc1O", 250),
    ("NCCCOc1cc2ccccc2cc1C(=O)NCCCOc1ccccc1C(=O)Nc1ccc(Cl)cc1O", 1820),
    ("NCCCOc1ccccc1C(=O)NCCCOc1cc2ccccc2cc1C(=O)Nc1ccc(Cl)cc1O", 2320),
]

Inquiry: Give recorded GI50. NCCCOc1cc2ccccc2cc1C(=O)NCCCOc1cc2ccccc2cc1C(=O)Nc1ccc(Cl)cc1O
Reply text: 220

====

- System: MDA-MB-468
- experiment.summary: Antiproliferative activity against human MDA-MB-468 cells assessed as inhibition of cell growth after 72 hrs by MTT assay
- Format: functional
- test.parameters: MDA-MB-468, 72 h
assay.metric: GI50 (µM)
Write the value in µM as a bare number.

Worked cases, answers included:
# compound.smiles, assay.metric, measurement.units, reported.result
records = [
    ("NCCCOc1cc2ccccc2cc1C(=O)NCCCOc1cc2ccccc2cc1C(=O)Nc1ccc(Cl)cc1", "GI50", "µM", 1.62),
    ("O=C(NCCCOc1cc2ccccc2cc1C(=O)Nc1ccc(Cl)cc1O)c1cc2ccccc2cc1OCCCO", "GI50", "µM", 10.2),
    ("NCCOc1cc2ccccc2cc1C(=O)NCCCOc1cc2ccccc2cc1C(=O)Nc1ccc(Cl)cc1O", "GI50", "µM", 1.85),
]

Inquiry: Give recorded GI50. O=C(NCCCOc1cc2ccccc2cc1C(=O)Nc1ccc(Cl)cc1O)c1cc2ccccc2cc1OCCCN1CCOCC1
Reply text: 13.7
